- Target Under Test: D(1A) dopamine receptor (Homo sapiens) (UniProt P21728)
- Sequence (P21728 whole entry, looked up): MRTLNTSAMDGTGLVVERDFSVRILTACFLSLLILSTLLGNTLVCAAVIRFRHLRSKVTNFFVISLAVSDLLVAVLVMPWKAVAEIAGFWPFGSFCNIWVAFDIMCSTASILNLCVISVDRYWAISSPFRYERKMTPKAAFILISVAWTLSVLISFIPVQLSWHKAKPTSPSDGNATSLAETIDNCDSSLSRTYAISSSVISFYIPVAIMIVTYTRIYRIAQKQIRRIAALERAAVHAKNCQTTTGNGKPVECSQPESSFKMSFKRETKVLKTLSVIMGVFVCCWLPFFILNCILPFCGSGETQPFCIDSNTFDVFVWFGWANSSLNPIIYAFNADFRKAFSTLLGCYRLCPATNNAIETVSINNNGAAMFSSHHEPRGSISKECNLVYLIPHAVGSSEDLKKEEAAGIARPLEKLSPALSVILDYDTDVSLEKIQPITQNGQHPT
- Assay Summary: Potentiators of Human D1 Dopamine Receptor: qHTS; also: 0% is about no effect
- Experimental Parameters: HEK293 TREx D1 cells, calcium flux, dopamine EC20 potentiation; at 10 µM; stronger effect = higher value
In all, about 360,000 compounds went through this assay and about 130 (0.036%) were called active. The full list was thinned out, with actives kept by preference.
Measure: potentiation (%)
// note: answer is a bare numeric in %

1. COc1ccc2[nH]c3c(c2c1)CCN(C(=O)CCC1CCCC1)C3c1ccc(F)cc1 (centres undefined); -2.5
2. Oc1ccc(Cl)cc1C1C=C(c2ccc3c(c2)OCO3)NC(c2ccc(F)c(Br)c2)N1 (centres undefined); 1.65

With those in mind, consider the next compound.
IN: Respond only with potentiation recorded for COc1ccc(-c2cccc(NS(=O)(=O)c3cc(C)c(OC)c(C)c3C)c2)nn1
OUT: -2.1

* * *

- Target Under Test: D(1A) dopamine receptor (Homo sapiens)
- Assay Summary: Potentiators of Human D1 Dopamine Receptor: qHTS; also: 0% is about no effect
- Experimental Parameters: HEK293 TREx D1 cells, calcium flux, dopamine EC20 potentiation; at 10 µM; stronger effect = higher value
Hit rate of the full screen: of about 360,000 compounds, about 130 (0.036%) were called active. Many of the other results were omitted from the sample, so actives are more common in it than they were.
potentiation: recorded values

1) O=C(CCSCc1ccccc1F)N1CCN(c2ccc(Cl)cc2)CC1; -0.6% (inactive)
2) CC(=O)c1ccc(NC(=O)CSc2nnc(NC(=O)Nc3ccccc3)s2)cc1; 4.75% (inactive)
3) COc1cc(-c2cc3n(C)c(C)c(CCC(=O)Nc4ccc(F)cc4)c(=O)n3n2)cc(OC)c1OC; 0.6% (inactive)
4) CCN(CCCNC(=O)Cn1ncc2c3ccccc3n(C)c2c1=O)Cc1ccccc1; -1.8% (inactive)
5) Cn1c(=O)n(Cc2c(F)cccc2Cl)c(=O)c2c1nc1n2CCN1c1ccc(F)cc1; -3.15% (inactive)
6) Cc1oc2ncnc(N3CCOCC3)c2c1C(=O)NCCc1ccccc1; 2.6% (inactive)

IN: Respond only with potentiation recorded for Cc1ccc(OCC(=O)Nc2ccccc2C(=O)NC2CC2)cc1
OUT: -0.15% (inactive)

IN: Respond only with potentiation recorded for Cc1c(CCNC(=O)c2ccc(C(F)(F)F)cc2)sc2nc(-c3ccc(F)cc3)nn12
OUT: -2.3% (inactive)

IN: Respond only with potentiation recorded for COc1ccc(CCNc2nc(-c3ccc(F)cc3)cc(C(F)(F)F)n2)cc1OC
OUT: 3.1% (inactive)

IN: Respond only with potentiation recorded for N#CN1CCC(NC(=O)c2ccc(F)cc2)CC1
OUT: -0.05% (inactive)

* * *

potentiation: recorded values
- Target Under Test: D(1A) dopamine receptor (Homo sapiens)
- Assay Summary: Potentiators of Human D1 Dopamine Receptor: qHTS; also: 0% is about no effect
- Experimental Parameters: HEK293 TREx D1 cells, calcium flux, dopamine EC20 potentiation; at 10 µM; stronger effect = higher value
The campaign covered roughly 360,000 compounds. About 130 (0.036%) were called active. What follows is part of a selection rich in actives, with near analogues and random picks from the rest.
// note: answer is a bare numeric in %

The cases that follow already have their potentiation on record.
1) O=C(Nc1ccc(C(=O)OCc2cc(=O)n3nc(C4CC4)sc3n2)cc1)c1ccc(F)cc1; -0.15
2) Cc1cccc2nc(-c3ccc(Cl)s3)c(Nc3ccc4c(c3)OCCO4)n12; 1.7
3) CC(C)CNc1ncnc2c1nnn2C; 2.3
4) Cc1cc2c(cc1S(=O)(=O)CCC(=O)Nc1ccc(OC(F)(F)F)cc1)OCC(=O)N2; -3.35
5) Cc1ccc(S(=O)(=O)N2CCc3cc(C(=O)Nc4ccc(Cl)cc4C)ccc32)cc1; -2.8

IN: Respond only with potentiation recorded for Cc1ccccc1C(=O)Nc1nnc(S(=O)(=O)N(C)c2ccc(Cl)cc2)s1
OUT: -0.45

IN: Respond only with potentiation recorded for COc1ccc(CCNc2nc(-c3ccc(Cl)cc3)cc(C(F)(F)F)n2)cc1OC
OUT: 0.65

IN: Respond only with potentiation recorded for CCOc1cc(C2c3c(-c4ccc(Br)cc4)n[nH]c3C(=O)N2c2ccc(Cl)cc2)ccc1O (stereo not given)
OUT: 1.25

IN: Respond only with potentiation recorded for Cc1ccc(CNC(=O)CCc2c(C)nc3c(c(C)nn3-c3ccccc3)c2C)cc1
OUT: -2.25

IN: Respond only with potentiation recorded for O=C(CSc1n[nH]c(-c2ccccc2)n1)N1CCCCC1
OUT: 2.7

* * *

potentiation: recorded values
- Target Under Test: D(1A) dopamine receptor (Homo sapiens)
- Assay Summary: Potentiators of Human D1 Dopamine Receptor: qHTS; also: 0% is about no effect
- Experimental Parameters: HEK293 TREx D1 cells, calcium flux, dopamine EC20 potentiation; at 10 µM; stronger effect = higher value
Screen size: about 360,000 compounds; about 130 (0.036%) were called active. Only a selection was taken, and actives are over-represented in it overall.
// note: answer is a bare numeric in %

1. O=C(COc1ccccc1)NCc1ccc2c(c1)CCN2C(=O)c1ccc(F)cc1; -2.1
2. Cc1ccc(NC(=O)c2ccc(CN3CC(=O)N4CCCCC4C3=O)cc2)c(Cl)c1 (configuration not stated); 1.5
3. CC(NC(=O)c1cc(Sc2ccc(F)cc2F)nc2ccccc12)c1ccccc1 (configuration not stated); -2.8
4. Cc1c(-c2nc(-c3ccc4c(c3)OCO4)no2)nnn1-c1ccc(Br)cc1F; -2.8
5. Cc1ccc(C)c(Cn2c(C(=O)O)c(CNCc3cccs3)c3ccccc32)c1; 19.9

IN: Provide D(1A) dopamine receptor (Homo sapiens) potentiation reading for COc1ccc2c(Sc3ccc(C)cc3)c(C(=O)NC(C)c3ccccc3)[nH]c2c1 (configuration not stated) .
OUT: -3.25

IN: Provide D(1A) dopamine receptor (Homo sapiens) potentiation reading for CCOc1ccccc1NC(=O)Cn1c(=O)n(-c2cccc(C)c2)c(=O)c2c1c1cc(OC)ccc1n2C .
OUT: 3.65

IN: Provide D(1A) dopamine receptor (Homo sapiens) potentiation reading for N#Cc1nc(Nc2cccc(Cl)c2)nc(NC2CCCC2)n1 .
OUT: -2.6

IN: Provide D(1A) dopamine receptor (Homo sapiens) potentiation reading for CCOC(=O)c1c(NC(=O)/C=C/c2ccc(OC)cc2)sc2c1CCC(C)C2 (configuration not stated) .
OUT: 0.15

IN: Provide D(1A) dopamine receptor (Homo sapiens) potentiation reading for COC(=O)c1ccc(C2C(C(=O)Nc3ccccc3)=C(C)Nc3nc4ccccc4n32)cc1 (configuration not stated) .
OUT: -1.75

IN: Provide D(1A) dopamine receptor (Homo sapiens) potentiation reading for COc1cccc(CNC(=O)c2ccc3c(c2)N(Cc2ccc(C(F)(F)F)cc2)C(=O)c2ccccc2S3)c1OC .
OUT: -5.65

IN: Provide D(1A) dopamine receptor (Homo sapiens) potentiation reading for CCc1ccc(S(=O)(=O)c2nnn3c2nc(N2CCN(CC)CC2)c2sccc23)cc1 .
OUT: 1.1

* * *

potentiation: recorded values
- Target Under Test: D(1A) dopamine receptor (Homo sapiens) (UniProt P21728)
- Assay Summary: Potentiators of Human D1 Dopamine Receptor: qHTS; also: 0% is about no effect
- Experimental Parameters: HEK293 TREx D1 cells, calcium flux, dopamine EC20 potentiation; at 10 µM; stronger effect = higher value
Out of some 360,000 compounds screened, about 130 (0.036%) were called active. The entries come from a sample that favours actives as a whole.
// note: answer is a bare numeric in %

1. COc1ccc(N2CCN(C(=O)[C@@H](NC(=O)c3cc(OC)cc(OC)c3)C(C)C)CC2)cc1; -4.25

IN: Respond only with potentiation recorded for O=S(=O)(c1ccc2c(c1)OCCCO2)N1CCN(S(=O)(=O)c2c(F)cccc2F)CC1
OUT: -3.35

IN: Respond only with potentiation recorded for O=S(=O)(c1ccccc1)c1nc(-c2ccc(Cl)cc2Cl)oc1N1CCCCC1
OUT: -2.95

IN: Respond only with potentiation recorded for CCOC(=O)c1cccc(NC(=O)c2cc(CN3CCCC3)on2)c1
OUT: -7.25

* * *

potentiation: recorded values
- Target Under Test: D(1A) dopamine receptor (Homo sapiens) (UniProt P21728)
- Assay Summary: Potentiators of Human D1 Dopamine Receptor: qHTS; also: 0% is about no effect
- Experimental Parameters: HEK293 TREx D1 cells, calcium flux, dopamine EC20 potentiation; at 10 µM; stronger effect = higher value
Hit rate of the full screen: of about 360,000 compounds, about 130 (0.036%) were called active. The sample holds actives, similar compounds and a random draw of the others, so the mix is not that of the screen.
// note: answer is a bare numeric in %

The cases that follow already have their potentiation on record.
1. CCCCn1c(=O)c2oc3ccccc3c2n(CC(=O)Nc2ccccc2OC)c1=O; 1.65
2. O=C(CCCn1c(=O)c2cccn2c2cccnc21)NCc1ccc(F)cc1; -4.5
3. CCOC(=O)c1c(C)n(S(=O)(=O)c2ccc(C)cc2C)c2ccc(NS(=O)(=O)c3ccc(C)cc3C)cc12; -1.05

With those in mind, consider the next compound.
IN: Respond only with potentiation recorded for COc1ccc(-n2ccn(CC(=O)Nc3ccc(C)c(C)c3)c(=O)c2=O)cc1OC
OUT: -0.8

Every entry's value here was drawn from PubChem BioAssay AID504651.
